measurement_description: in vivo
study_conditions: Sprague-Dawley, rat, brain/plasma, po, 10 mg/kg
Description: Ratio of drug level in brain to plasma in femoral artery cannulated Sprague-Dawley rat at 10 mg/kg, po after 1 hr by LC/MS/MS method
recorded_endpoint: Kp at 1 h

CC(C)S(=O)(=O)NC[C@H]1CC[C@H](NC(=O)CN2C(=O)CCc3cc(Cl)ccc32)CC1 ... 0.02

(a) CC(C)S(=O)(=O)NC[C@H]1CC[C@H](NC(=O)CN2CCOc3cc(Cl)ccc32)CC1
(b) CC(C)S(=O)(=O)NC[C@H]1CC[C@H](NC(=O)CN2C(=O)COc3cc(Cl)ccc32)CC1
**Q:** Decide: a or b , by lowest recorded Kp at 1 h. Refer to your chosen entry by its label in the reply.
**A:** b

====

measurement_description: physchem
study_conditions: buffer, pH 7.4
Description: Solubility of the compound at pH 7.4
recorded_endpoint: solubility (µg/mL)
Express it in µg/mL; write the number only.

**Q:** Fill blank: measured solubility of the compound "CN(C)S(=O)(=O)NC[C@H]1CC[C@H](NC(=O)CN2C(=O)CC(C)(C)Sc3ccccc32)CC1" is ____.
**A:** 440

====

measurement_description: physchem
study_conditions: octanol/water
Description: Lipophilicity, log D of the compound
recorded_endpoint: logD
Give the value as a plain number.

**Q:** Fill blank: measured logD of the compound "CN(C)S(=O)(=O)NC[C@H]1CC[C@H](NC(=O)CN2C(=O)CC(C)(C)Sc3ccccc32)CC1" is ____.
**A:** 2.4
